- tgt: Nuclear receptor subfamily 1 group I member 2 (Homo sapiens) (UniProt O75469)
- Sequence (O75469 whole entry, looked up): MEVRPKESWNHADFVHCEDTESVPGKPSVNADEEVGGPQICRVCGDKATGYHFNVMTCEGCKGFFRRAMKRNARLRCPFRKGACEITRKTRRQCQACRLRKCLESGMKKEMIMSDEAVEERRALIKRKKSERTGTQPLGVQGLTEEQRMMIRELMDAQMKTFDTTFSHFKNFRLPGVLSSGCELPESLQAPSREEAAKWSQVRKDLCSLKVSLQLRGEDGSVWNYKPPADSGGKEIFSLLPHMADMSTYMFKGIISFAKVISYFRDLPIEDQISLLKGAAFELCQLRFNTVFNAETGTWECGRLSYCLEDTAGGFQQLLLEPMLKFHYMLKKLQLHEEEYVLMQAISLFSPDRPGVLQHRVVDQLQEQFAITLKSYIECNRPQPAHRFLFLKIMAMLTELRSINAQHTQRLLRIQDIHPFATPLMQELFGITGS
- protocol.details: Human pregnane X receptor (PXR) small molecule agonists, qHTS assay (AID 1346982); note: nearly all actives have a fitted effect of over 35% in size; for activation: % is set by controls: 0 for no effect and ±100 for the full control effect
- reported.conditions: PXR-Luc HepG2, CYP3A4 luciferase reporter, 24 h; series mostly up to 92.4 µM
Results filed as inconclusive are left out. The source made the active and inactive calls. Calls come from the whole dose curve; as a rule, active = well fitted activation curve with a large enough effect in the repeat runs; inconclusive = weak or mixed curves; inactive = no such curve, though single readings can be large or run the other way.
Outcomes: active, inactive

INSERT INTO assay_data (compound, tgt, label_class) VALUES
  ('COC(C)(C)OC', 'Nuclear receptor subfamily 1 group I member 2 (Homo sapiens) (UniProt O75469)', 'inactive'),
  ('CCCCCCC(O)CCCCCCCCCCC(=O)OC (stereo not given)', 'Nuclear receptor subfamily 1 group I member 2 (Homo sapiens) (UniProt O75469)', 'inactive'),
  ('CC(C)COC(=O)c1ccc(O)cc1', 'Nuclear receptor subfamily 1 group I member 2 (Homo sapiens) (UniProt O75469)', 'active'),
  ('Nc1nc(-c2ccc([N+](=O)[O-])cc2)cs1', 'Nuclear receptor subfamily 1 group I member 2 (Homo sapiens) (UniProt O75469)', 'active'),
  ('CC(C)OC(=O)c1ccccc1C(=O)OC(C)C', 'Nuclear receptor subfamily 1 group I member 2 (Homo sapiens) (UniProt O75469)', 'inactive');

----------
- protocol.details: qHTS assay to identify small molecule agonists of the peroxisome proliferator-activated receptor delta (PPARd) signaling pathway - cell viability counter screen (AID 743211); note: nearly all actives have a fitted effect of over 55% in size
- reported.conditions: PPARd-bla HEK293H viability, CellTiter-Glo luminescence, 17 h; series mostly up to 62.6 µM
Results filed as inconclusive are left out. Active and inactive are the calls of the source. Calls follow the shape of the dose curve; as a rule, active = well fitted cell-killing curve with a large enough effect in the repeat runs; inconclusive = weak or mixed curves; inactive = no such curve, though single readings can be large or run the other way.
Outcomes: label 1 for active, label 0 for inactive

INSERT INTO assay_data (compound, label_class) VALUES
  ('Cc1ccc(NC(=O)N(C)C)cc1NC(=O)N(C)C', 'label 0'),
  ('Cc1cn([C@H]2C[C@H](F)[C@@H](CO)O2)c(=O)[nH]c1=O', 'label 0'),
  ('O=C(O)CCS', 'label 0'),
  ('CC(=O)NNC(C)=O', 'label 0'),
  ('OCC(CO)n1cnc(-c2ccc(F)cc2)c1-c1ccnc(Oc2ccccc2)n1', 'label 0'),
  ('O=C(CCS)OCC(COC(=O)CCS)(COC(=O)CCS)COC(=O)CCS', 'label 0'),
  ('O=C(O)c1cccc(C[C@@H]2COc3ccc(OCc4nc5cc(F)ccc5s4)cc3[C@@H]2O)c1', 'label 0'),
  ('CCCCCCCC(=O)Oc1c(Br)cc(C#N)cc1Br', 'label 0'),
  ('C[C@@H]1C[C@H]2[C@@H]3CCC4=CC(=O)C=C[C@]4(C)[C@@]3(F)[C@@H](O)C[C@]2(C)[C@@]1(O)C(=O)COP(=O)(O)O', 'label 0'),
  ('COc1ccc(C)cc1', 'label 0'),
  ('CC(C)C1CCC(C(=O)N[C@H](Cc2ccccc2)C(=O)O)CC1 (some centres undefined)', 'label 0'),
  ('CCOc1ncc(F)c(=O)[nH]1', 'label 0'),
  ('O[C@@H](CNC[C@H](O)[C@H]1CCc2cc(F)ccc2O1)[C@@H]1CCc2cc(F)ccc2O1', 'label 1'),
  ('CC1C(C)(C)C2=C(C(=O)CCC2)C1(C)C (centres undefined)', 'label 0'),
  ('CSSc1ccoc1C', 'label 0'),
  ('ClC1=C(Cl)C1(Cl)Cl', 'label 0'),
  ('CC1CCc2nccnc21 (centres undefined)', 'label 0'),
  ('O=CNNC=O', 'label 0'),
  ('CCN(CC)CCOC(=O)C(c1ccccc1)c1ccccc1', 'label 0');

----------
- protocol.details: qHTS RealTime-Glo MT Cell Viability Assay in HEK293 cells - 40 hour (AID 1224874); note: % is set by controls: 0 for no effect and ±100 for the full control effect; nearly all actives have a fitted effect of over 50% in size
- reported.conditions: RealTime-Glo luminescence; hits give low values
Results filed as inconclusive are left out.
measurement.kind: max response (%)

INSERT INTO measurements (compound, measurement_kind, measurement_unit, measured_value) VALUES
  ('CC(=O)c1ccc[nH]1', 'max response', '%', -0.568),
  ('C/C(C=O)=C\c1ccccc1', 'max response', '%', 0.492),
  ('CC(C)c1ccc(C(=O)N=C(N)N)cc1S(C)(=O)=O', 'max response', '%', 18.4),
  ('CCCCCCCCCCCCCCN(C)C', 'max response', '%', -29.2),
  ('CCCCCCC(CO)CCCC (centres undefined)', 'max response', '%', 4.35),
  ('COC(C)(C)OC', 'max response', '%', 15.9),
  ('O=C(O)c1cccc(Oc2ccccc2)c1', 'max response', '%', -1.97),
  ('C[C@@H]1[C@H](O)[C@@H](C)/C=C/C=C\C=C\C=C\C=C\C=C\C=C\[C@H](O[C@@H]2O[C@H](C)[C@@H](O)[C@H](N)[C@@H]2O)C[C@@H]2O[C@](O)(C[C@@H](O)C[C@@H](O)[C@H](O)CC[C@@H](O)C[C@@H](O)CC(=O)O[C@H]1C)C[C@H](O)[C@H]2C(=O)O (stereo in doubt)', 'max response', '%', -0.557),
  ('Cc1ccc(N(CCO)CCO)cc1', 'max response', '%', 0.166),
  ('O=C(c1ccccc1)c1ccc(O)cc1', 'max response', '%', -20.1),
  ('CCCCCCCCCCCCCCCCCC(=O)OCC(CC)CCCC (centres undefined)', 'max response', '%', 2.92),
  ('CC(CCc1ccc(O)cc1)NCCc1ccc(O)c(O)c1 (centres undefined)', 'max response', '%', -18.1),
  ('CCCCCC', 'max response', '%', 0.47),
  ('CCCCOCCOC(=O)c1cccnc1', 'max response', '%', 0.954),
  ('CCO[Si](C)(CCCOCC1CO1)OCC (centres undefined)', 'max response', '%', 13.3),
  ('CC(=O)N[C@@H](Cc1ccc(O)cc1)C(=O)O', 'max response', '%', 8.17),
  ('CSSc1ccoc1C', 'max response', '%', 0.757),
  ('CC(C)N(C)C', 'max response', '%', 0.0453),
  ('O=C(O)CCS', 'max response', '%', 7.66),
  ('COC(CC(C)CCCC(C)(C)O)OC (centres undefined)', 'max response', '%', 1.35),
  ('COC(=O)CC(C(C)=O)C(=O)OC (centres undefined)', 'max response', '%', 9.23),
  ('Cc1cc([N+](=O)[O-])ccc1N', 'max response', '%', -19.2),
  ('CCN(CC)CC(=O)Nc1c(C)cccc1C(=O)OC', 'max response', '%', 0.513),
  ('CCC(CO)(CO)CO', 'max response', '%', 5.95),
  ('COc1ccc(CCN(C)CCCN2CCc3cc(OC)c(OC)cc3CC2=O)cc1OC', 'max response', '%', 9.42),
  ('O=CNNC=O', 'max response', '%', 10.2),
  ('Nc1c(Cl)cc(Cl)cc1[N+](=O)[O-]', 'max response', '%', 7.12),
  ('C[C@@H]1C[C@H]2[C@@H]3CCC4=CC(=O)C=C[C@]4(C)[C@@]3(F)[C@@H](O)C[C@]2(C)[C@@]1(O)C(=O)COP(=O)(O)O', 'max response', '%', -21.2),
  ('COc1ccc(N)c([N+](=O)[O-])c1', 'max response', '%', -15.1),
  ('c1ccc2sc(SSc3nc4ccccc4s3)nc2c1', 'max response', '%', 15.6),
  ('CCC(C)(C)C(=O)O', 'max response', '%', -0.784),
  ('CCCCCCCCCCCCCOS(=O)(=O)O', 'max response', '%', -4.56),
  ('CC(C)Cc1ccc(CC(=O)O)cc1', 'max response', '%', 4.43),
  ('O=C(O)/C=C/c1ccc(O)c(O)c1', 'max response', '%', -2.68);

----------
- tgt: Nuclear receptor subfamily 1 group I member 3 (Homo sapiens)
- protocol.details: qHTS assay to identify small molecule agonists of the constitutive androstane receptor (CAR) signaling pathway (AID 1224839); note: nearly all actives have a fitted effect of over 15% in size;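 for activation: HepG2 cells stably carrying human CAR and a CYP2B6 luciferase reporter; % is set by controls: 0 for no effect and ±100 for the full control effect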
- reported.conditions: HepG2 hCAR CYP2B6-luciferase, agonist mode, 24 h; series mostly up to 92.4 µM
Inconclusive results are not listed. Activity calls are given as the source filed them. The call rests on the fitted dose curve; in most records, active means well fitted activation curve with a large enough effect in the repeat runs; inconclusive means weak or mixed curves; inactive means no such curve, though single readings can be large or run the other way.
Outcomes: active, inactive

INSERT INTO results (compound, label_class) VALUES
  ('CC(C)N(C)C', 'inactive'),
  ('CS(=O)(=O)c1ccc([C@@H](C[C@H]2CCC(=O)C2)C(=O)Nc2cnccn2)cc1Cl', 'inactive'),
  ('Nc1c(Cl)cc(Cl)cc1[N+](=O)[O-]', 'inactive'),
  ('COC(CC(C)CCCC(C)(C)O)OC (configuration not stated)', 'inactive'),
  ('Cc1cccc(C)c1NC(=O)c1cc(S(N)(=O)=O)c(Cl)cc1O', 'inactive'),
  ('COC1CCC=CO1 (configuration not stated)', 'inactive'),
  ('Cc1c[nH]c2ccccc12', 'inactive'),
  ('CCCCCCCCCCCSCC(=O)O', 'inactive'),
  ('CC(=O)NCCO', 'inactive'),
  ('CCCCCC', 'inactive'),
  ('CCOC(=O)c1c(N)sc2c1CCN(Cc1ccccc1)C2', 'inactive'),
  ('CC(C)C(O)C(C)(C)CO (configuration not stated)', 'inactive'),
  ('CC(=O)OCC(=O)[C@@]1(OC(C)=O)[C@@H](C)C[C@H]2[C@@H]3C[C@H](F)C4=CC(=O)C=C[C@]4(C)[C@@]3(F)[C@@H](O)C[C@@]21C', 'inactive'),
  ('CC1C(C)(C)C2=C(C(=O)CCC2)C1(C)C (configuration not stated)', 'inactive'),
  ('C=CCOC(=O)COCCC(C)C', 'inactive'),
  ('CCC(Cl)CC(Cl)C(Cl)C(Cl)C(Cl)C(C)Cl (configuration not stated)', 'active'),
  ('Nc1cccc2c(N)cccc12', 'active');
